# Target: SpBzz1-D1
# Test: SPOT peptide array binding signal intensity (averaged, normalized) (arbitrary units (background-subtracted, floor 0; scale differs between SH3 domains)); higher = stronger binding of the SH3 domain to the peptide
Think of 200 as a floor: if SPOT peptide array binding signal intensity stands on it or above, it is Fulfilled; beneath it, Not fulfilled.

For orientation, consider the following solved cases.
1. NSMRPPLLIPAATTK | Fulfilled
2. TEVPIPRRPPPPQAA | Not fulfilled
3. LSKRLPLRFPEHTSS | Not fulfilled
4. HPRFVSPRIPSRIVK | Fulfilled
5. PLQSKIPMLPSRRTM | Fulfilled

Q: Given KDKKTKPTPPPKPSH , state whether its SPOT peptide array binding signal intensity is at least 200.
Result: Not fulfilled

Q: Given MARRRLPDRPPNGIG , state whether its SPOT peptide array binding signal intensity is at least 200.
Result: Fulfilled

Q: Given VPPVPLPFGIPPFPM , state whether its SPOT peptide array binding signal intensity is at least 200.
Result: Fulfilled

Q: Given NPLPKEPRLPKRKVA , state whether its SPOT peptide array binding signal intensity is at least 200.
Result: Fulfilled

Q: Given TKPTPPPKPSHLKPK , state whether its SPOT peptide array binding signal intensity is at least 200.
Result: Fulfilled

Q: Given ALFRLSFFFPLDPAY , state whether its SPOT peptide array binding signal intensity is at least 200.
Result: Fulfilled

Q: Given QRIRKIPGIPLMSVG , state whether its SPOT peptide array binding signal intensity is at least 200.
Result: Not fulfilled

Q: Given FPPKRKPLLRPQRSD , state whether its SPOT peptide array binding signal intensity is at least 200.
Result: Fulfilled

Q: Given IKTRSVPKIPSIESV , state whether its SPOT peptide array binding signal intensity is at least 200.
Result: Fulfilled

Q: Given ATNVPVAPPPPPASL , state whether its SPOT peptide array binding signal intensity is at least 200.
Result: Not fulfilled

Hello, the source for this data is the supplement of paper PMC4466140, in case you need it.
